Attribution: ChEMBL document CHEMBL5058564

# Tested on: Fibroblast
# method notes: Incucyte cell viability with human fibroblast; also: unitless GR value; below 1 slowed growth and below 0 cell loss
# Format: toxicity, cell-based
# run conditions: 12 h, 10 µM, compound concentration 10 uM, replicate number 2, timepoint 12 hours
assay endpoint: Growth Rate
The reply should be a number, written without any unit.

Answered cases to consult:
- molecule: "CCOc1ccc(Cc2nc3cc(C(=O)N(CC)CC)ccc3n2CC2CCCCC2)cc1"
  test result: 0.58
- molecule: "Nc1nc(-c2ccco2)c2cnn(Cc3ccccc3F)c2n1"
  test result: -0.55

In: Give the value of Growth Rate reported for the following: "COc1cc(Nc2ncc3c(n2)-c2ccc(Cl)cc2C(c2c(F)cccc2OC)=NC3)ccc1C(=O)O"
Out: -0.17

In: Give the value of Growth Rate reported for the following: "O=C(O)c1ccccc1S(=O)(=O)NCCCCN1C(=O)c2cccc3cccc(c23)C1=O"
Out: 0.94

----------
Listed next: entries and their corresponding Growth Rate.
# Tested on: U2OS
# method notes: Incucyte cell viability with U2OS; also: unitless GR value; below 1 slowed growth and below 0 cell loss
# Format: toxicity, cell-based
# run conditions: human, 6 h, 10 µM, compound concentration 10 uM, replicate number 2, timepoint 6 hours
Where a SMILES comes first, the peptide text is derived from it. Bridges are numbered along the chain shown (N, C = ends). [ ]: non-standard residue; d: D form. Orn = NCCC[C@H](N)C(=O)O; Mpa = O=C(O)CCS
The reply should be a number, written without any unit.

Answered cases to consult:
- compound: "O=C(Nc1cc(C(F)(F)F)ccc1N1CCCCC1)c1ccncc1"
  target under test: "U2OS"
  assay endpoint: "Growth Rate"
  test result: 0.75
- compound: "CC(C)COc1ccc(CNC(=O)N(Cc2ccc(F)cc2)C2CCN(C)CC2)cc1 [PIMAVANSERIN]"
  target under test: "U2OS"
  assay endpoint: "Growth Rate"
  test result: 0.04
- compound: "O=C(c1cc(C2CC2)on1)N(C1CCCCC1)C1CCCCC1"
  target under test: "U2OS"
  assay endpoint: "Growth Rate"
  test result: 0.71
- compound: "CCCC(CCC)C(=O)O [VALPROIC ACID]"
  target under test: "U2OS"
  assay endpoint: "Growth Rate"
  test result: 0.75
- compound: "CC1(C)[C@H]2C[C@H](C/C=C\\CCCC(=O)O)[C@@H](NC(=O)c3csc4ccc(O)cc34)[C@@H]1C2"
  target under test: "U2OS"
  assay endpoint: "Growth Rate"
  test result: 0.91
- compound: "Br.Oc1cc2c(cc1O)C(c1ccccc1)CNCC2 (stereo not drawn)"
  target under test: "U2OS"
  assay endpoint: "Growth Rate"
  test result: 1
- compound: "CCOC(=O)Nc1cc(-c2ccc(C)c(NS(C)(=O)=O)c2)nn2c(C)nnc12"
  target under test: "U2OS"
  assay endpoint: "Growth Rate"
  test result: 0.59

In: Give the value of Growth Rate reported for the following: CCOc1ccc(C[C@H]2NC(=O)CCSSC[C@@H](C(=O)N3CCC[C@H]3C(=O)N[C@@H](CCCN)C(=O)NCC(N)=O)NC(=O)[C@H](CC(N)=O)NC(=O)[C@H]([C@@H](C)O)NC(=O)[C@H]([C@@H](C)CC)NC2=O)cc1 [ATOSIBAN] ([Mpa][dY](Et)ITNCP[Orn]G-NH2; disulfide 1-6)
Out: 0.76

----------
# Test system: U2OS
# method notes: Incucyte cell viability with U2OS; also: unitless GR value; below 1 slowed growth and below 0 cell loss
# Type: toxicity, cell-based
# run conditions: human, 18 h, 10 µM, compound concentration 10 uM, replicate number 2, timepoint 18 hours
Classify: T when Growth Rate is strictly less than 0.9; F when Growth Rate is not.

Known results for molecules:
- molecule: "C[C@@H](c1ccc(F)cc1)n1nnc2cnc3ccc(-c4ccc5ocnc5c4)cc3c21"
  class name: "T"
- molecule: "NC[C@H](O)c1ccc(O)c(O)c1.O.O=C(O)C(O)C(O)C(=O)O"
  class name: "F"
- molecule: "CCN1/C(=C/C(C)=O)Sc2ccc(OC(C)=O)cc21"
  class name: "F"
- molecule: "CSc1nc(NC2CCCC2)c([N+](=O)[O-])c(NC2CCCC2)n1"
  class name: "T"
- molecule: "N#Cc1c(N)nc(SCc2csc(-c3ccc(Cl)cc3)n2)c(C#N)c1-c1ccc(OCCO)cc1"
  class name: "T"

In: Lab log: compare recorded Growth Rate with 0.9; is it strictly lower for "CN(c1ncccc1CNc1ccnc(-c2cc3cc(Cl)ccc3[nH]2)n1)S(C)(=O)=O" ?
Out: T

In: Lab log: compare recorded Growth Rate with 0.9; is it strictly lower for "CC(C)c1cc(-c2ccc(F)c3ccccc23)nc(N)n1" ?
Out: T

In: Lab log: compare recorded Growth Rate with 0.9; is it strictly lower for "c1ccc(NCc2ccc(CNc3ccccn3)cc2)nc1" ?
Out: F

In: Lab log: compare recorded Growth Rate with 0.9; is it strictly lower for "CC(C)Cc1ccc([C@@H](C)C(=O)NS(C)(=O)=O)cc1" ?
Out: T

In: Lab log: compare recorded Growth Rate with 0.9; is it strictly lower for CN1CCN2c3ncccc3Cc3ccccc3C2C1 (centres undefined) ?
Out: T

In: Lab log: compare recorded Growth Rate with 0.9; is it strictly lower for "CCOc1ccc(Cc2nc3cc(C(=O)N(CC)CC)ccc3n2CC2CCCCC2)cc1" ?
Out: F

In: Lab log: compare recorded Growth Rate with 0.9; is it strictly lower for Cc1ccccc1C(=O)Nc1ccc(C(=O)N2CCCC(N(C)C)c3ccccc32)cc1.Cl (centres undefined) ?
Out: T

In: Lab log: compare recorded Growth Rate with 0.9; is it strictly lower for C[C@H]1[C@H](OC(=O)CCC(=O)O)O[C@@H]2O[C@@]3(C)CC[C@H]4[C@H](C)CC[C@@H]1[C@@]24OO3 [ARTESUNATE] ?
Out: T

In: Lab log: compare recorded Growth Rate with 0.9; is it strictly lower for "Cc1cc(O)c(-c2ccc([C@@H](C)CN(C)C)cc2)c2c1[nH]c(=O)c1sccc12" ?
Out: T
